# assayedSystem: progesterone receptor (Homo sapiens)
# Construct: determining a compound's effect on alkaline phosphatase activity in T47D cells; endogenous in cells; host or cells: T47D cells
# protocol: Alkaline phosphatase activity in T47D cells (progestin antagonist mode)
# Format: cell-based
# conditionParameters: in the presence of 1 nM progesterone, 24 h, read-out: T47D Alkaline Phosphatase Activity IC50 (nM) or % inhibition
# Method: (1) Effects of Progestins and Antiprogestins on Alkaline Phosphatase Activity in T47D Cells PURPOSE: To identify progestins or antiprogestins by determining a compound's effect on alkaline phosphatase activity in T47D cells. […] For reference and test compounds, a dose response curve was generated for dose (X-axis) vs. the rate of enzyme reaction (slope) (Y-axis). […] EC50 or IC50 values were calculated from the retransformed values. […]
Task for the reader: assign each of the following compounds its reported IC50.
Please provide the amount together with its unit, number first.

Please respond with reported IC50 (system progesterone receptor (Homo sapiens)) for CN1CCN(c2nc(-c3ccc(Br)cc3)cs2)C1=O [Example 5] . 733 nM

Look up and report measured IC50 (progesterone receptor (Homo sapiens)) for the following compound: CN1CC(C)(C)N(c2nc(-c3ccc(C#N)cc3)cs2)C1=O [Example 8] 35.4 nM

Name the value of IC50 reported for CC1(C)CN(Cc2ccccc2)C(=O)N1c1nc(-c2ccc(C#N)cc2)cs1 [Example 9] when tested on progesterone receptor (Homo sapiens). 77.9 nM

Supply IC50 measured with progesterone receptor (Homo sapiens) for O=C1NCCN1c1nc(-c2ccc(Br)cc2)cs1 [Example 4] . 1070 nM

* * *

Please go through the items and note down their melting point.

Tell me measured melting point for C[C@@H]1COC(=O)N1c1nc(-c2ccc(Br)cc2)cs1 [Example 1] please. 197 to 199 °C

Please report the measured melting point for CC1(C)COC(=O)N1c1nc(-c2cccc(C#N)c2)cs1 [Example 3] 181 to 183 °C

Give the value of melting point reported for the following: O=C1NCCN1c1nc(-c2ccc(Br)cc2)cs1 [Example 4] 230 to 233 °C

Answer with the recorded melting point for the molecule listed here: CCC1(CC)COC(=O)N1c1nc(-c2ccc(C#N)cc2)cs1 [Example 2] 145 to 147 °C
